tested on: OVCAR-3 ovarian; assay: NCI-60 one-dose screen, 48 h (100 = growth as untreated, 0 = no growth, -100 = all killed); details: 10 µM unless noted
Compounds without any hit were thinned out: in the full panel of roughly 83,000, 20% have a hit.
Each item that follows carries a reported growth.
propertyMeasured: growth (%)

# sampleSmiles, testedOn, valueObserved
records = [
    ("CCOC(=O)c1sc(/N=C2\\NC(=O)/C(=C/c3ccc(N4CCN(C)CC4)cc3)S2)nc1C", "OVCAR-3 ovarian", 96.3),
    ("O=[N+]([O-])c1ccc(N=Nc2c(O)c(N=Nc3cc([N+](=O)[O-])cc([N+](=O)[O-])c3O)cc(N=Nc3cc(S(=O)(=O)O)cc4cc(S(=O)(=O)O)cc(O)c34)c2O)cc1", "OVCAR-3 ovarian", 104),
    ("COc1cccc(NC(=O)Nc2ccc(Nc3ncnc4[nH]c(C)c(C)c34)cc2)c1", "OVCAR-3 ovarian", 113),
    ("Nc1c(C(=O)Nc2ccccc2)sc2nc3c(cc12)CN(C(=O)OCc1ccccc1)CC3", "OVCAR-3 ovarian", 16),
    ("COc1ccc(NC(=O)c2ccc(Nc3ncnc4[nH]c(C)c(C)c34)cc2)cc1", "OVCAR-3 ovarian", 103),
    ("C=C1C(=O)O[C@H]2[C@H]1CC/C(COC(=O)Nc1nc3ccccc3[nH]1)=C\\CC[C@@]1(C)O[C@@H]21", "OVCAR-3 ovarian", 17.3),
    ("O=C(N/N=C/C[C@@H]1[C@@H](/C=C/[C@@H](O)COc2cccc(Cl)c2)[C@H](O)C[C@@H]1O)c1ccncc1", "OVCAR-3 ovarian", 105),
    ("Cc1cnc(SCc2ccc(Cl)cc2)[nH]c1=S", "OVCAR-3 ovarian", 94.1),
]
